Data provenance: ChEMBL document CHEMBL4834413

- procedure.text: Efflux ratio in human Caco2 cells
- Format: ADME, cell-based
- test.conditions: Caco-2
readout.type: efflux ratio
# print the numeric value only

*Q* So what does the record say about efflux ratio for Cn1cncc1-c1cc(F)ccc1CN1CCP(=O)(O)[C@](CCCCN)(C(=O)O)C1 ?
*A* 1

====

- procedure.text: Volume of distribution at steady state in rat at 1 mg/kg, iv
- Format: ADME, organism-based
- test.conditions: in vivo, read-out: Vdss
readout.type: Vd (L/kg)
Value expressed in L/kg; do not type the unit.

*Q* Which Vd value is on record for Cn1cncc1-c1cc(F)ccc1CN1CCP(=O)(O)[C@](CCCCN)(C(=O)O)C1 ?
*A* 0.3
